Provide the reported log10 IC50 of each item.
System Tested: 11-beta-hydroxysteroid dehydrogenase 1 (Homo sapiens, UniProt P28845)
Sequence (P28845 whole entry): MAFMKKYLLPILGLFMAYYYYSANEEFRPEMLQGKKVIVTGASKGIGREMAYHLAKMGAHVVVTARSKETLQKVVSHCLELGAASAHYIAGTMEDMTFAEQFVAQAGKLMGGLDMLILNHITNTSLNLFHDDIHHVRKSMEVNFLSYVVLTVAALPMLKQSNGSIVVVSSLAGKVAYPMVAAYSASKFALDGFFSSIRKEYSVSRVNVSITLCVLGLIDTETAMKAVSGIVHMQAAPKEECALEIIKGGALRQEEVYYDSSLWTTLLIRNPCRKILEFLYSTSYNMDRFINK
Method: Inhibition of human 11beta-HSD1 expressed in CHO-K1 cells assessed as conversion of [3H]-cortisone to [3H]-cortisol by scintillation proximity assay
The figures below represent log10 of IC50, where IC50 is stated in nM.

What measured log10 IC50 goes with CCOCC12CCC(c3nnc(-c4ccccc4C(F)(F)F)n3C)(CC1)CC2 ?
0.60

What measured log10 IC50 goes with Cn1c(-c2ccccc2C(F)(F)F)nnc1C12CCC(COc3ccc(S(C)(=O)=O)cc3)(CC1)CC2 ?
0.00

What measured log10 IC50 goes with CCS(=O)(=O)CCC12CCC(c3nnc(-c4ccc(Cl)cc4)n3C)(CC1)CC2 ?
3.45

What measured log10 IC50 goes with CCCCCC12CCC(c3nnc(-c4ccccc4C(F)(F)F)n3C)(CC1)CC2 ?
0.26

What measured log10 IC50 goes with CC(O)CCCC12CCC(c3nnc4n3CCCCCC4)(CC1)CC2 (stereo not given) ?
1.54

What measured log10 IC50 goes with CC(=O)CCCC12CCC(c3nnc(-c4ccccc4C(F)(F)F)n3C)(CC1)CC2 ?
0.08

What measured log10 IC50 goes with CC(C)S(=O)(=O)CCC12CCC(c3nnc(-c4ccccc4C(F)(F)F)n3C)(CC1)CC2 ?
0.61

What measured log10 IC50 goes with CCS(=O)(=O)CCCC12CCC(c3nnc(-c4ccccc4C(F)(F)F)n3C)(CC1)CC2 ?
0.51

What measured log10 IC50 goes with CCCCCC12CCC(c3nnc4n3CCCCCC4)(CC1)CC2 ?
0.60

What measured log10 IC50 goes with CCS(=O)(=O)CCC12CCC(c3nnc(-c4ccc(O)cc4Cl)n3C)(CC1)CC2 ?
0.45

What measured log10 IC50 goes with Cn1c(-c2ccccc2C(F)(F)F)nnc1C12CCC(CCS(=O)(=O)C(C)(C)C)(CC1)CC2 ?
0.73

What measured log10 IC50 goes with Cn1c(-c2ccccc2C(F)(F)F)nnc1C12CCC(CCS(C)(=O)=O)(CC1)CC2 ?
1.04

What measured log10 IC50 goes with Cn1c(-c2ccccc2C(F)(F)F)nnc1C12CCC(CCS(=O)(=O)C(F)(F)F)(CC1)CC2 ?
0.79

What measured log10 IC50 goes with CCSCCC12CCC(c3nnc(-c4ccccc4C(F)(F)F)n3C)(CC1)CC2 ?
0.52

What measured log10 IC50 goes with Cn1c(-c2ccccc2C(F)(F)F)nnc1C12CCC(CCS(=O)(=O)CC(F)(F)F)(CC1)CC2 ?
0.57

What measured log10 IC50 goes with CCS(=O)(=O)CCCCC12CCC(c3nnc(-c4ccccc4C(F)(F)F)n3C)(CC1)CC2 ?
0.20

What measured log10 IC50 goes with CCS(=O)(=O)NCC12CCC(c3nnc(-c4ccccc4C(F)(F)F)n3C)(CC1)CC2 ?
1.30

What measured log10 IC50 goes with CCCS(=O)(=O)NCC12CCC(c3nnc(-c4ccccc4C(F)(F)F)n3C)(CC1)CC2 ?
0.91

What measured log10 IC50 goes with Cn1c(-c2ccccc2C(F)(F)F)nnc1C12CCC(CNS(C)(=O)=O)(CC1)CC2 ?
1.48

What measured log10 IC50 goes with CCS(=O)(=O)CCC12CCC(c3nnc(-c4cccc(Cl)c4)n3C)(CC1)CC2 ?
2.95

What measured log10 IC50 goes with Cn1c(-c2ccccc2C(F)(F)F)nnc1C12CCC(CCS(=O)(=O)c3ccccc3)(CC1)CC2 ?
0.64

What measured log10 IC50 goes with CCS(=O)(=O)CCC12CCC(c3nnc(-c4ccccc4Br)n3C)(CC1)CC2 ?
1.00

What measured log10 IC50 goes with Cn1c(-c2ccccc2C(F)(F)F)nnc1C12CCC(COc3ccc(Cl)cc3)(CC1)CC2 ?
0.04

---

System Tested: 11-beta-hydroxysteroid dehydrogenase type 2 (Homo sapiens, UniProt P80365)
Sequence (P80365 whole entry): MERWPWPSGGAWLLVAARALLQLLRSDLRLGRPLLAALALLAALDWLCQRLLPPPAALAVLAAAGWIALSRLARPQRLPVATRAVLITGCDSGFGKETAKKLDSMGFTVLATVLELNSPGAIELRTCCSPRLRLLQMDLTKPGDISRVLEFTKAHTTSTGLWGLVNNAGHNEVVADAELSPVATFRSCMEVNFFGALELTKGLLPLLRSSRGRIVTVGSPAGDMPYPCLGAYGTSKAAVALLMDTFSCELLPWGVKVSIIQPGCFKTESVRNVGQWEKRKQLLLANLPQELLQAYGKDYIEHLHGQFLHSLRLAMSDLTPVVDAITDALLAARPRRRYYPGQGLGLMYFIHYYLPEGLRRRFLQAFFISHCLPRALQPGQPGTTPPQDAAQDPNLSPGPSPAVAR
Method: Inhibition of human 11beta-HSD2 expressed in CHO-K1 cells assessed as conversion of [3H]-cortisol to [3H]-cortisone by scintillation proximity assay
pIC50: −log10 of the molar value.
Provide the reported pIC50 of each item.

What value of pIC50 on 11-beta-hydroxysteroid dehydrogenase type 2 (Homo sapiens, UniProt P80365) does CCS(=O)(=O)CCC12CCC(c3nnc(-c4cccc(Cl)c4)n3C)(CC1)CC2 have?
< 5.40

What value of pIC50 on 11-beta-hydroxysteroid dehydrogenase type 2 (Homo sapiens, UniProt P80365) does CC[S+]([O-])CCC12CCC(c3nnc(-c4ccccc4C(F)(F)F)n3C)(CC1)CC2 (centres undefined) have?
< 5.40

What value of pIC50 on 11-beta-hydroxysteroid dehydrogenase type 2 (Homo sapiens, UniProt P80365) does CC(F)CCCC12CCC(c3nnc(-c4ccccc4C(F)(F)F)n3C)(CC1)CC2 (centres undefined) have?
5.89

What value of pIC50 on 11-beta-hydroxysteroid dehydrogenase type 2 (Homo sapiens, UniProt P80365) does CCS(=O)(=O)CCC12CCC(c3nnc(-c4ccc(Cl)cc4)n3C)(CC1)CC2 have?
< 5.40

What value of pIC50 on 11-beta-hydroxysteroid dehydrogenase type 2 (Homo sapiens, UniProt P80365) does CCCS(=O)(=O)CCC12CCC(c3nnc(-c4ccccc4C(F)(F)F)n3C)(CC1)CC2 have?
< 5.40

What value of pIC50 on 11-beta-hydroxysteroid dehydrogenase type 2 (Homo sapiens, UniProt P80365) does CC(=O)CCCC12CCC(c3nnc(-c4ccccc4C(F)(F)F)n3C)(CC1)CC2 have?
5.40

What value of pIC50 on 11-beta-hydroxysteroid dehydrogenase type 2 (Homo sapiens, UniProt P80365) does CCCS(=O)(=O)NCC12CCC(c3nnc(-c4ccccc4C(F)(F)F)n3C)(CC1)CC2 have?
< 5.40

What value of pIC50 on 11-beta-hydroxysteroid dehydrogenase type 2 (Homo sapiens, UniProt P80365) does CC(C)S(=O)(=O)CCC12CCC(c3nnc(-c4ccccc4C(F)(F)F)n3C)(CC1)CC2 have?
< 5.40

What value of pIC50 on 11-beta-hydroxysteroid dehydrogenase type 2 (Homo sapiens, UniProt P80365) does CC(O)CCCC12CCC(c3nnc(-c4ccccc4C(F)(F)F)n3C)(CC1)CC2 (centres undefined) have?
< 6.00

What value of pIC50 on 11-beta-hydroxysteroid dehydrogenase type 2 (Homo sapiens, UniProt P80365) does CCS(=O)(=O)CCCC12CCC(c3nnc(-c4ccccc4C(F)(F)F)n3C)(CC1)CC2 [MK-0736] have?
< 5.40

What value of pIC50 on 11-beta-hydroxysteroid dehydrogenase type 2 (Homo sapiens, UniProt P80365) does Cn1c(-c2ccccc2C(F)(F)F)nnc1C12CCC(CCS(=O)(=O)CC(F)(F)F)(CC1)CC2 have?
5.80

What value of pIC50 on 11-beta-hydroxysteroid dehydrogenase type 2 (Homo sapiens, UniProt P80365) does CCS(=O)(=O)CCC12CCC(c3nnc(-c4ccccc4Cl)n3C)(CC1)CC2 have?
< 5.40

What value of pIC50 on 11-beta-hydroxysteroid dehydrogenase type 2 (Homo sapiens, UniProt P80365) does CCS(=O)(=O)CCC12CCC(c3nnc(-c4ccccc4C)n3C)(CC1)CC2 have?
< 5.40

What value of pIC50 on 11-beta-hydroxysteroid dehydrogenase type 2 (Homo sapiens, UniProt P80365) does Cn1c(-c2ccccc2C(F)(F)F)nnc1C12CCC(CCS(=O)(=O)c3ccc(F)cc3)(CC1)CC2 have?
< 5.40

What value of pIC50 on 11-beta-hydroxysteroid dehydrogenase type 2 (Homo sapiens, UniProt P80365) does Cn1c(-c2ccccc2C(F)(F)F)nnc1C12CCC(CNS(C)(=O)=O)(CC1)CC2 have?
< 5.40

What value of pIC50 on 11-beta-hydroxysteroid dehydrogenase type 2 (Homo sapiens, UniProt P80365) does Cn1c(-c2ccccc2C(F)(F)F)nnc1C12CCC(CCS(=O)(=O)C(F)(F)F)(CC1)CC2 have?
< 5.40

What value of pIC50 on 11-beta-hydroxysteroid dehydrogenase type 2 (Homo sapiens, UniProt P80365) does CCS(=O)(=O)CCC12CCC(c3nnc(-c4ccccc4Br)n3C)(CC1)CC2 have?
< 5.40

What value of pIC50 on 11-beta-hydroxysteroid dehydrogenase type 2 (Homo sapiens, UniProt P80365) does CCCCCC12CCC(c3nnc(-c4ccccc4C(F)(F)F)n3C)(CC1)CC2 have?
5.89

What value of pIC50 on 11-beta-hydroxysteroid dehydrogenase type 2 (Homo sapiens, UniProt P80365) does Cn1c(-c2ccccc2C(F)(F)F)nnc1C12CCC(CCS(C)(=O)=O)(CC1)CC2 have?
< 5.40
